- measurementNotes: Largest Soluble Hydrocarbon (LSH)
- Type: physicochemical
- conditionNotes: 50° C.; test material to hydrocarbon ratio approximately 1:1 to 1:2 by weight; no haze to the naked eye
endpointName: LSH (n in CnH2n+2)
Just the number, please, no unit attached.

// worked examples, LSH (n in CnH2n+2) included
| querySmiles | LSH (n in CnH2n+2) |
| --- | --- |
| COC(F)(F)C(F)(F)C(F)(F)F | 10 |
| CSC(F)(F)C(F)(F)C(F)(F)C(F)(F)F | 21 |

The measured LSH (n in CnH2n+2) associated with COC(F)(F)C(F)(F)C(F)(F)C(F)(F)F reads 9

The measured LSH (n in CnH2n+2) associated with FC(F)(F)CC(F)(F)CCl reads 17
